Just for reference, ChEMBL document CHEMBL1961873 is where these values come from.

target: Tyrosine-protein kinase Fgr (Homo sapiens); settings: at 1 µM;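 further: value reported as mean kinase inhibition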
What inhibition was measured for each of the following?
The response must be a number in % with no trailing unit.

Recorded inhibition (compound NS(=O)(=O)c1ccc(N/N=C2\C(=O)Nc3ccc(Cl)cc32)cc1 ): 7.63

Entry [O-][S+]1CCN(Cc2ccc(-c3ccc4ncnc(Nc5ccc(OCc6ccccc6)c(Cl)c5)c4c3)o2)CC1 — recorded inhibition = 8.63

inhibition reading for Cc1ccc2c(-c3ccnc(Nc4ccc5c(c4)OCCO5)n3)c(-c3ccc(C(F)(F)F)cc3)nn2n1 : 18.4

Quick note, inhibition for NS(=O)(=O)c1ccc(-c2cc3ccncc3cc2OCc2ccccc2)cc1 landed at 4.64

inhibition measured on COc1cccc(-n2ncc3c(N/N=C/c4ccc(S(C)(=O)=O)cc4)ncnc32)c1 = 64

COC(=O)c1cncc(/C=C/c2c(C)cc(O)cc2C)c1 has a reported inhibition of 20.9

Note to self: inhibition recorded for O=S(=O)(CCOCc1ccc(-c2ccc3ncnc(Nc4ccc(OCc5cccc(F)c5)c(Cl)c4)c3c2)o1)c1ccccc1 was 2.31

inhibition recorded for this compound, N#Cc1c(NC(=O)c2ccccc2F)sc2c1CCCC2 , is 1.21

Cc1ccc(C(=O)NC2CC2)cc1-c1ccc2[nH]ncc2c1 has a reported inhibition of 1.41

Looking up CCn1c(-c2nonc2N)nc2ccc(F)cc21 , I found its inhibition recorded as 1.73

----------
molecular target: Hepatocyte growth factor receptor (Homo sapiens); conditions: at 0.1 µM;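 further: reported values are means of MET inhibition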
ASSAY_READOUT: inhibition (%)
Provide the reading as a plain figure in %.

Notebook: COc1cccc(-n2ncc3c(N/N=C/c4ccc(C)cc4)ncnc32)c1 , inhibition read as -2.1

Entry under test: CCn1c(-c2nonc2N)nc2c(C#CC(C)(C)O)nc(OCCNC)cc21 . Its inhibition was 4.48

// sample Cc1ccc(O)cc1Nc1ccnc2ccc(S(C)(=O)=O)cc12 , its inhibition was 5.51

Short answer for COc1cc(Nc2nccc(-c3cnn4ncccc34)n2)cc(OC)c1 : inhibition was 4.01

Sure, the documented inhibition for COC(=O)c1cncc(/C=C/c2c(C)cc(O)cc2C)c1 is 1.79

inhibition reported for this compound Cc1ccc(NC(=O)CC2CC2)cc1-c1ccc(C(=O)NCC2CC2)cc1 : 7.51

Looking up Oc1cccc(-c2nc(-c3ccccc3)[nH]c2-c2ccncc2)c1 , I see its inhibition listed as 6.73

// sample O=C1Nc2ccc(-c3cccnc3)cc2C1=Cc1cc(Br)c(O)c(Br)c1 , its inhibition was 2.89

// inhibition lookup, compound = N#Cc1cccc(Nc2nccc(-c3cnn4ncccc34)n2)c1 , result: 6.82

Record Nc1nccc(C#Cc2cncnc2Nc2ccc(OCc3cccc(F)c3)c(Cl)c2)n1 . Reported inhibition: 4.74

Entry COc1cccc(-n2nc(C)c3c(N/N=C(\C)c4ccncc4)ncnc32)c1 , inhibition reported as -1.53

The reported inhibition of the compound COc1cc2ncnc(Nc3ccc(C)c(O)c3)c2cc1OC was 1.61

Looking up ON=C1CCc2cc(-c3nc(C4CCNCC4)[nH]c3-c3ccncc3)ccc21 , I see its inhibition listed as 0.32

# inhibition of NS(=O)(=O)c1ccc(N/N=C2\C(=O)Nc3ccc(Cl)cc32)cc1 = 7.96

----------
biological target: Cyclin-dependent kinase 5 (Homo sapiens) (UniProt Q00535); conditions: at 1 µM;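 further: mean value of inhibition, with the enzyme tested as CDK5/p35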
Sequence (Q00535 whole entry, looked up): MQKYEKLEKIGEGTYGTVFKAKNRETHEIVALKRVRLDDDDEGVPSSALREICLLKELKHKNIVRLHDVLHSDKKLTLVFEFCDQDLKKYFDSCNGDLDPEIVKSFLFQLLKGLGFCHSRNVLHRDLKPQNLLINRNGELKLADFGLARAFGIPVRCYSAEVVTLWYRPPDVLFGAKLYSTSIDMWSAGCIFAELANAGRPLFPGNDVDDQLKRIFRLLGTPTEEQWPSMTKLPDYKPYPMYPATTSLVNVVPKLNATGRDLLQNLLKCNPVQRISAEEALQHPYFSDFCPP
Param threshold (1%) applies to inhibition; output Fulfilled when value >= threshold, Not fulfilled when value < threshold.

input: Decide: is the reported value of inhibition for Cc1ccc(NC(=O)CC2CC2)cc1-c1ccc(C(=O)NCC2CC2)cc1 equal to or greater than 1%?
output: Not fulfilled

input: Does the reported inhibition for CCS(=O)(=O)c1ccc(OC)c(Nc2nccc(N(C)c3ccc4c(C)n[nH]c4c3)n2)c1 fall at or above the 1% mark?
output: Not fulfilled

input: Check this compound for inhibition at or above 1%: ON=C1CCc2cc(-c3nc(C4CCNCC4)[nH]c3-c3ccncc3)ccc21
output: Fulfilled

input: Would you say COc1cc2ncnc(Nc3ccc4c(cnn4Cc4ccccc4)c3)c2cc1OC shows inhibition at minimum 1%?
output: Fulfilled

input: Would you say NS(=O)(=O)c1cccc(-c2cc3ccncc3cc2OCc2ccccc2)c1 shows inhibition at minimum 1%?
output: Fulfilled

input: Given CCn1c(-c2nonc2N)nc2ccc(F)cc21 , state whether its inhibition is at least 1%.
output: Not fulfilled
